Cmax for assorted compounds
test: In vivo pharmacokinetics in infected mice (plasma, LC-MS/MS); design: species or system BALB/c mice; conditions: BALB/c, mouse, plasma, po, 400 mg/kg, Group 7 triplet PA824 50/BDQ 25/MXF 400 mg/kg oral; steady state, infected mice; read-out: Cmax in Triplet
// units = ng/mL; emit number, no label

Req: Would you mind telling me what Cmax value was observed for COc1c(N2C[C@@H]3CCCN[C@@H]3C2)c(F)cc2c(=O)c(C(=O)O)cn(C3CC3)c12 ?
Resp: 4600

Req: I would be grateful if you could share the reported Cmax for O=[N+]([O-])c1cn2c(n1)OC[C@@H](OCc1ccc(OC(F)(F)F)cc1)C2 .
Resp: 8400

Others:
Req: # Cmax lookup, item COc1nc2ccc(Br)cc2cc1[C@@H](c1ccccc1)[C@@](O)(CCN(C)C)c1cccc2ccccc12
Resp: 3600

* * *

Below, each of the compounds is paired with its reported AUC(0-t) value.
assay: In vivo pharmacokinetics in infected mice (plasma, LC-MS/MS); parameters: species or system BALB/c mice; details: BALB/c, mouse, plasma, po, 100 mg/kg, Group 8 triplet PA824 50/BDQ 25/EMB 100 mg/kg oral; steady state, infected mice; read-out: AUC0-24 in Triplet
Answer in ng·h/mL, number only, no unit symbol.

// worked examples, AUC(0-t) included
Req: Give its AUC(0-t) value. Item: O=[N+]([O-])c1cn2c(n1)OC[C@@H](OCc1ccc(OC(F)(F)F)cc1)C2
Resp: 119000

Req: Requested field: AUC(0-t). Item: COc1nc2ccc(Br)cc2cc1[C@@H](c1ccccc1)[C@@](O)(CCN(C)C)c1cccc2ccccc12
Resp: 43300

New cases:
Req: Name the reported AUC(0-t) value associated with the compound CC[C@@H](CO)NCCN[C@@H](CC)CO
Resp: 9900

* * *

assay: In vivo pharmacokinetics in infected mice (plasma, LC-MS/MS); design: species or system BALB/c mice; conditions: BALB/c, mouse, plasma, po, 150 mg/kg, Group 9 quartet EMB 100/SQ109 25/LZD 130/PZA 150 mg/kg oral; steady state, infected mice; read-out: AUC0-24 in Quartet
MEASURE NAME: AUC(0-t) (µg·h/mL)
Numeric only. Scale: µg·h/mL

// known answers, use as guide
Req: Can you share its AUC(0-t)? I mean this compound: NC(=O)c1cnccn1 [Pyrazinamide]
Resp: 119

Req: AUC(0-t) lookup needed for CC(C)=CCC/C(C)=C/CNCCNC1C2CC3CC(C2)CC1C3 (stereo not drawn) [SQ109] , thanks.
Resp: 7.6

Next compound, please.
Req: # input compound: CC(=O)NC[C@H]1CN(c2ccc(N3CCOCC3)c(F)c2)C(=O)O1 [Linezolid] ; wanted: its AUC(0-t)
Resp: 178

* * *

assay: In vivo pharmacokinetics in infected mice (plasma, LC-MS/MS); set-up: species or system BALB/c mice; settings: BALB/c, mouse, plasma, po, 150 mg/kg, Group 7 quartet PA824 50/BDQ 25/MXF 400/PZA 150 mg/kg oral; steady state, infected mice; read-out: Cmax in Quartet
MEASURE NAME: Cmax (ng/mL)
The reply should contain only the number, in ng/mL.

For orientation, consider the following solved cases.
Req: What Cmax value was documented for this molecule, COc1nc2ccc(Br)cc2cc1[C@@H](c1ccccc1)[C@@](O)(CCN(C)C)c1cccc2ccccc12 ?
Resp: 4500

Req: Which value of Cmax has been reported for NC(=O)c1cnccn1 [Pyrazinamide] in the records?
Resp: 33200

Req: Look at this molecule and give its reported Cmax. COc1c(N2C[C@@H]3CCCN[C@@H]3C2)c(F)cc2c(=O)c(C(=O)O)cn(C3CC3)c12
Resp: 5100

Read the next record carefully.
Req: Find the recorded Cmax belonging to O=[N+]([O-])c1cn2c(n1)OC[C@@H](OCc1ccc(OC(F)(F)F)cc1)C2 and report it.
Resp: 6000

* * *

assay: In vivo pharmacokinetics in infected mice (plasma, LC-MS/MS); set-up: species or system BALB/c mice; conditions: BALB/c, mouse, plasma, po, 150 mg/kg, Group 8 quartet PA824 50/BDQ 25/EMB 100/PZA 150 mg/kg oral; steady state, infected mice; read-out: Cmax in Quartet
# Cmax values compiled below
// return numeric value only (unit: ng/mL, not printed)

Req: I would be grateful if you could share the reported Cmax for CC[C@@H](CO)NCCN[C@@H](CC)CO .
Resp: 1500

***
Req: What value of Cmax has been reported for the following molecule? NC(=O)c1cnccn1 [Pyrazinamide]
Resp: 69000

Req: Fill in: Cmax of COc1nc2ccc(Br)cc2cc1[C@@H](c1ccccc1)[C@@](O)(CCN(C)C)c1cccc2ccccc12 is ___
Resp: 4200

Req: Record request: Cmax value, item O=[N+]([O-])c1cn2c(n1)OC[C@@H](OCc1ccc(OC(F)(F)F)cc1)C2
Resp: 9800

* * *

The entries below come with measured AUC(0-t) values attached.
test: In vivo pharmacokinetics in infected mice (plasma, LC-MS/MS); set-up: species or system BALB/c mice; details: BALB/c, mouse, plasma, po, 150 mg/kg, Group 1 quartet CFZ 20/BDQ 25/PA824 50/PZA 150 mg/kg oral; steady state, infected mice; read-out: AUC0-24 in Quartet
Quick note: give the figure in ng·h/mL, leave out the unit.

Req: Could you tell me which AUC(0-t) is on file for O=[N+]([O-])c1cn2c(n1)OC[C@@H](OCc1ccc(OC(F)(F)F)cc1)C2 [PA824] ?
Resp: 60900

Req: Please look up its AUC(0-t): NC(=O)c1cnccn1 [Pyrazinamide]
Resp: 115000

Req: // returns reported AUC(0-t) for input COc1nc2ccc(Br)cc2cc1[C@@H](c1ccccc1)[C@@](O)(CCN(C)C)c1cccc2ccccc12 [Bedaquiline]
Resp: 30900

// switching to the query molecule
Req: Look up AUC(0-t): CC(C)/N=c1\cc2n(-c3ccc(Cl)cc3)c3ccccc3nc-2cc1Nc1ccc(Cl)cc1 [Clofazimine]
Resp: 48000

* * *

assay: In vivo pharmacokinetics in infected mice (plasma, LC-MS/MS); design: species or system BALB/c mice; conditions: BALB/c, mouse, plasma, po, 25 mg/kg, Group 5 triplet EMB 100/BDQ 25/SQ109 25 mg/kg oral; steady state, infected mice; read-out: AUC0-24 in Triplet
# Lookup of reported AUC(0-t) keyed by entry
State the answer as a number, implicitly in ng·h/mL.

Answered cases to consult:
Req: For the compound COc1nc2ccc(Br)cc2cc1[C@@H](c1ccccc1)[C@@](O)(CCN(C)C)c1cccc2ccccc12 , what AUC(0-t) is on record?
Resp: 22200

Req: What measured AUC(0-t) goes with CC(C)=CCC/C(C)=C/CNCCNC1C2CC3CC(C2)CC1C3 (stereo not drawn) ?
Resp: 7800

Now for another entry.
Req: So what's the measured AUC(0-t) for this one? CC[C@@H](CO)NCCN[C@@H](CC)CO
Resp: 4100

* * *

Overview of reported Cmax across a group of molecules:
Test: In vivo pharmacokinetics in infected mice (plasma, LC-MS/MS)
Set-up: species or system BALB/c mice
Conditions: BALB/c, mouse, plasma, po, 150 mg/kg, Ref. regimen quartet INH 30/RIF 10/EMB 100/PZA 150 mg/kg oral; steady state, infected mice; read-out: Cmax in Quartet
Experimental: The drugs were formulated in 0.5% hydroxypropyl methyl cellulose (HPMC)–0.1% Tween 80 suspensions as 3- or 4-drug combinations. Formulations were prepared by weighing and adding each compound to the bottle, according to the design. Formulation vehicle was added, and the suspension was stirred overnight. Only uniform suspensions were used, while those that precipitated were abandoned. Formulations were prepared every week, and compound stability was estimated at the end of the week. […]
// note: answer is a bare numeric in ng/mL

Solved entries (count: 3):
Req: Given CC[C@@H](CO)NCCN[C@@H](CC)CO , state its recorded Cmax.
Resp: 1700

Req: State the recorded Cmax for this entry: CO[C@H]1/C=C/O[C@@]2(C)Oc3c(C)c(O)c4c(O)c(c(/C=N/N5CCN(C)CC5)c(O)c4c3C2=O)NC(=O)/C(C)=C\C=C\[C@H](C)[C@H](O)[C@@H](C)[C@@H](O)[C@@H](C)[C@H](OC(C)=O)[C@@H]1C
Resp: 5500

Req: Would you mind telling me what Cmax value was observed for NNC(=O)c1ccncc1 ?
Resp: 7000

Further cases:
Req: Form field: reported Cmax of NC(=O)c1cnccn1 [Pyrazinamide]
Resp: 69700

* * *

Assay: In vivo pharmacokinetics in infected mice (plasma, LC-MS/MS)
Parameters: species or system BALB/c mice
Conditions: BALB/c, mouse, plasma, po, 130 mg/kg, Group 9 triplet EMB 100/SQ109 25/LZD 130 mg/kg oral; steady state, infected mice; read-out: Cmax in Triplet
Procedure: The drugs were formulated in 0.5% hydroxypropyl methyl cellulose (HPMC)–0.1% Tween 80 suspensions as 3- or 4-drug combinations. Formulations were prepared by weighing and adding each compound to the bottle, according to the design. Formulation vehicle was added, and the suspension was stirred overnight. Only uniform suspensions were used, while those that precipitated were abandoned. Formulations were prepared every week, and compound stability was estimated at the end of the week. […]
MEASURE NAME: Cmax (ng/mL)
Write the value in ng/mL as a bare number.

Recorded results for 2 molecules are shown here.
Req: Recorded Cmax of CC(=O)NC[C@H]1CN(c2ccc(N3CCOCC3)c(F)c2)C(=O)O1 , please.
Resp: 14100

Req: GET /values?readout=Cmax&item= CC(C)=CCC/C(C)=C/CNCCNC1C2CC3CC(C2)CC1C3 (stereo not drawn)
Resp: 900

Turning now to a further record.
Req: Reported Cmax, molecule CC[C@@H](CO)NCCN[C@@H](CC)CO : ____
Resp: 1100
